- System: C. neoformans ATCC 90113
- APPLIED CONDITIONS: ATCC 90113, 72 h
Where a SMILES comes first, the peptide text is derived from it. Bridges are numbered along the chain shown (N, C = ends). [ ]: non-standard residue; d: D form. The star is where a group is joined. Decanoyl(3R-OH) = CCCCCCC[C@@H](O)CC(=O)*; dDab = NCC[C@@H](N)C(=O)O; Dab = NCC[C@H](N)C(=O)O
OUTCOME MEASURE: MICs against various Cryptococcus strains: ATCC 90113

{"COMPOUND": "CCCCCCC[C@@H](O)CC(=O)N[C@H](CCN)C(=O)N[C@H]1CCNC(=O)[C@H](CC(C)C)NC(=O)[C@H](CCN)NC(=O)[C@H](CCN)NC(=O)[C@H](CC(C)C)NC(=O)[C@@H](Cc2ccccc2)NC(=O)[C@H](CCN)NC1=O [Octapeptin C4, octapeptin C4] ({Decanoyl(3R-OH)}-[dDab][Dab][Dab][dF]L[Dab][Dab]L; lactam 2-C (inferred); N-terminus assumed)", "SYSTEM TESTED": "C. neoformans ATCC 90113", "RESULT": "1.56 µg/mL"}

Could you now consider this next compound?
q: May I ask what MICs against various Cryptococcus strains: ATCC 90113 has been recorded for CCCCCCC[C@@H](O)CC(=O)N[C@H](CCN)C(=O)N[C@H]1CCNC(=O)[C@H](CC(C)C)NC(=O)[C@H](CCN)NC(=O)[C@H](CCN)NC(=O)[C@H](C)NC(=O)[C@@H](Cc2ccccc2)NC(=O)[C@H](CCN)NC1=O [Compound P5] ({Decanoyl(3R-OH)}-[dDab][Dab][Dab][dF]A[Dab][Dab]L; lactam 2-C) ?
a: 12.5 µg/mL

* * *

- Test system: C. neoformans ATCC 90113
- APPLIED CONDITIONS: ATCC 90113, 72 h
Where a SMILES comes first, the peptide text is derived from it. Bridges are numbered along the chain shown (N, C = ends). [ ]: non-standard residue; d: D form. The star is where a group is joined. Decanoyl(3R-OH) = CCCCCCC[C@@H](O)CC(=O)*; dDab = NCC[C@@H](N)C(=O)O; Dab = NCC[C@H](N)C(=O)O
Record form. Attribute: MICs against various Cryptococcus strains: ATCC 90113. Fill in for each entry.
One number for each entry, in µg/mL.

// for each molecule in input: emit MICs against various Cryptococcus strains: ATCC 90113
1. CCCCCCC[C@@H](O)CC(=O)N[C@H](CCN)C(=O)N[C@H]1CCNC(=O)[C@H](CC(C)C)NC(=O)[C@H](CCN)NC(=O)[C@H](CCN)NC(=O)[C@H](CC(C)C)NC(=O)[C@H](C)NC(=O)[C@H](CCN)NC1=O [Compound P4L] ({Decanoyl(3R-OH)}-[dDab][Dab][Dab]AL[Dab][Dab]L; lactam 2-C)
2. CCCCCCC[C@@H](O)CC(=O)N[C@H](CCN)C(=O)N[C@H]1CCNC(=O)[C@H](CC(C)C)NC(=O)[C@H](C)NC(=O)[C@H](CCN)NC(=O)[C@H](CC(C)C)NC(=O)[C@@H](Cc2ccccc2)NC(=O)[C@H](CCN)NC1=O [Compound P7] ({Decanoyl(3R-OH)}-[dDab][Dab][Dab][dF]L[Dab]AL; lactam 2-C)
3. CCCCCCC[C@@H](O)CC(=O)N[C@H](CCN)C(=O)N[C@H]1CCNC(=O)[C@H](CC(C)C)NC(=O)[C@H](CCN)NC(=O)[C@H](C)NC(=O)[C@H](CC(C)C)NC(=O)[C@@H](Cc2ccccc2)NC(=O)[C@H](CCN)NC1=O [Compound P6] ({Decanoyl(3R-OH)}-[dDab][Dab][Dab][dF]LA[Dab]L; lactam 2-C)
4. CCCCCCC[C@@H](O)CC(=O)N[C@@H](C)C(=O)N[C@H]1CCNC(=O)[C@H](CC(C)C)NC(=O)[C@H](CCN)NC(=O)[C@H](CCN)NC(=O)[C@H](CC(C)C)NC(=O)[C@@H](Cc2ccccc2)NC(=O)[C@H](CCN)NC1=O [Compound P1L] ({Decanoyl(3R-OH)}-A[Dab][Dab][dF]L[Dab][Dab]L; lactam 2-C)
5. CCCCCCC[C@@H](O)CC(=O)N[C@H](CCN)C(=O)N[C@H]1CCNC(=O)[C@H](CC(C)C)NC(=O)[C@H](CCN)NC(=O)[C@H](CCN)NC(=O)[C@H](CC(C)C)NC(=O)[C@@H](Cc2ccccc2)NC(=O)[C@H](C)NC1=O [Compound P3] ({Decanoyl(3R-OH)}-[dDab][Dab]A[dF]L[Dab][Dab]L; lactam 2-C)
6. CCCCCCC[C@@H](O)CC(=O)N[C@H](CCN)C(=O)N[C@H]1CCNC(=O)[C@H](C)NC(=O)[C@H](CCN)NC(=O)[C@H](CCN)NC(=O)[C@H](CC(C)C)NC(=O)[C@@H](Cc2ccccc2)NC(=O)[C@H](CCN)NC1=O [Compound P8] ({Decanoyl(3R-OH)}-[dDab][Dab][Dab][dF]L[Dab][Dab]A; lactam 2-C)

a:
1. 25.0
2. 6.25
3. 6.25
4. 12.5
5. 6.25
6. 6.25

// for each molecule in input: emit MICs against various Cryptococcus strains: ATCC 90113
1. CCCCCCC[C@@H](O)CC(=O)N[C@H](C)C(=O)N[C@H]1CCNC(=O)[C@H](CC(C)C)NC(=O)[C@H](CCN)NC(=O)[C@H](CCN)NC(=O)[C@H](CC(C)C)NC(=O)[C@@H](Cc2ccccc2)NC(=O)[C@H](CCN)NC1=O [Compound P1D] ({Decanoyl(3R-OH)}-[dA][Dab][Dab][dF]L[Dab][Dab]L; lactam 2-C)
2. CCCCCCC[C@@H](O)CC(=O)N[C@H](CCN)C(=O)N[C@H]1CCNC(=O)[C@H](CC(C)C)NC(=O)[C@H](CCN)NC(=O)[C@H](CCN)NC(=O)[C@H](CC(C)C)NC(=O)[C@@H](C)NC(=O)[C@H](CCN)NC1=O [Compound P4D] ({Decanoyl(3R-OH)}-[dDab][Dab][Dab][dA]L[Dab][Dab]L; lactam 2-C)

a:
1: 6.25; 2: 12.5
